TESTED_ON: JAK2 (Homo sapiens, UniProt O60674)
Sequence (O60674 whole entry): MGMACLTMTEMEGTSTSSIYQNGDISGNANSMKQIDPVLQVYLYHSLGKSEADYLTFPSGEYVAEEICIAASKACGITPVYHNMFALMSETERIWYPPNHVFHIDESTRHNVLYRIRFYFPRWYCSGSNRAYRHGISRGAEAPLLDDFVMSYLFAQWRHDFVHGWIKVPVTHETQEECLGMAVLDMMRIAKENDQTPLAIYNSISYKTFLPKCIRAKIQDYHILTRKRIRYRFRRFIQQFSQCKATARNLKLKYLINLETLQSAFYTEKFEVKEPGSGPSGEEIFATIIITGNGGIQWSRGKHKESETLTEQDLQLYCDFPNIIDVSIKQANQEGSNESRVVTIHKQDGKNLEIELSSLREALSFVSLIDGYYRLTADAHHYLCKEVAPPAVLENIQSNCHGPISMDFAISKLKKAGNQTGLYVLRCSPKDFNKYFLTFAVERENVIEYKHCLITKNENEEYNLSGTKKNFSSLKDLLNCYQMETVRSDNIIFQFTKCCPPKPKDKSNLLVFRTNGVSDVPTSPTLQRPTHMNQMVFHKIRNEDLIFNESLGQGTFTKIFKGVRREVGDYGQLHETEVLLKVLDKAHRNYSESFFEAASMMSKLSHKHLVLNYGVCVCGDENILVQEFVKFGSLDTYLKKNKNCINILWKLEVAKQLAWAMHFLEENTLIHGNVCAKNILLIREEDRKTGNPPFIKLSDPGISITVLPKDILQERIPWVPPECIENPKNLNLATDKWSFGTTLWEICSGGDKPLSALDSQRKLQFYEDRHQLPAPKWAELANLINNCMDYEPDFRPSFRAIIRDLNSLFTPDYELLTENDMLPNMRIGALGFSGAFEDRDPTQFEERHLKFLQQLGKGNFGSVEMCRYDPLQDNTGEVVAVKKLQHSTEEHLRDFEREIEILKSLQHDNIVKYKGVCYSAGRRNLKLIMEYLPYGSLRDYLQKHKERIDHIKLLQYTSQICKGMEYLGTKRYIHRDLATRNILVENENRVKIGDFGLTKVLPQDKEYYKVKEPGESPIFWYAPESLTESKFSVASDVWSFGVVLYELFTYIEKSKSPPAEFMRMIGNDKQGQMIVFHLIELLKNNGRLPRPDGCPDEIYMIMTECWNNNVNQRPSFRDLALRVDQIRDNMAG
ASSAY: AlphaScreen SureFire p-STAT5 (p-Tyr694/699)-EPO-JAK2 cell-based assay (UT-7 cells)
Set-up: purchased Invitrogen
STATED_CONDITIONS: EPO 45 ng/mL, n=5, read-out: IC50, EPO-stimulated pSTAT5 JAK2 cell-based assay
REPORTED_METRIC: IC50 (µM)
Could you give me the number in µM? Just the number is fine.

Qu. Indicate its recorded IC50; the compound in question is Cc1cc(Nc2cc(O[C@H]3CC[C@@H](NC[C@@H](O)C(F)(F)F)CC3)cc3c2ncn3C)nn1C [Example 1]
Ans. 11.8

====

TESTED_ON: JAK2 (Homo sapiens, UniProt O60674)
ASSAY: JAK LanthaScreen Kinase Assay (TR-FRET), JAK2 in vitro enzyme assay
Assay type: biochemical
Set-up: purchased Invitrogen
STATED_CONDITIONS: ATP 5 μM; n=6
REPORTED_METRIC: IC50 (nM)
Could you give me the number in nM? Just the number is fine.

Qu. Indicate its recorded IC50; the molecule in question is "Cc1cc(Nc2cc(O[C@H]3CC[C@@H](NC[C@@H](O)C(F)(F)F)CC3)cc3c2ncn3C)nn1C"
Ans. 557

====

System: Ba/F3 cells expressing human mtJAK1 (S729C)
ASSAY: BaF3 Mutant JAK-1 (S729C) Clone 12 Proliferation Assay
Format: cell-based, Murine
STATED_CONDITIONS: BaF3, 72 h; 3 day incubation, Cell Titer Glo; n=4
Procedure: BaF3 Mutant JAK-1 (S729C) Clone 12 Proliferation Assay The purpose of this assay is to determine the inhibitory activity of JAK-1 specific inhibitors using the BaF3 mutant JAK-1 (S729C) Clone 12 proliferation assay. […] Proliferation assays are performed in culture medium without selection and from now on will be referred to as (R10−). Briefly, cultured cells are decanted, centrifuged and reconstituted in 10 mL of R10− and counted using a Beckman Coulter Vi-Cell. […]
REPORTED_METRIC: IC50
Returns: string containing the numeric result and its unit.

Qu. Indicate its recorded IC50; the molecule in question is "Cc1cc(Nc2cc(O[C@H]3CC[C@@H](NC[C@@H](O)C(F)(F)F)CC3)cc3c2ncn3C)nn1C"
Ans. 956 nM

====

TESTED_ON: JAK1 (Homo sapiens, UniProt P23458)
Sequence (P23458 whole entry): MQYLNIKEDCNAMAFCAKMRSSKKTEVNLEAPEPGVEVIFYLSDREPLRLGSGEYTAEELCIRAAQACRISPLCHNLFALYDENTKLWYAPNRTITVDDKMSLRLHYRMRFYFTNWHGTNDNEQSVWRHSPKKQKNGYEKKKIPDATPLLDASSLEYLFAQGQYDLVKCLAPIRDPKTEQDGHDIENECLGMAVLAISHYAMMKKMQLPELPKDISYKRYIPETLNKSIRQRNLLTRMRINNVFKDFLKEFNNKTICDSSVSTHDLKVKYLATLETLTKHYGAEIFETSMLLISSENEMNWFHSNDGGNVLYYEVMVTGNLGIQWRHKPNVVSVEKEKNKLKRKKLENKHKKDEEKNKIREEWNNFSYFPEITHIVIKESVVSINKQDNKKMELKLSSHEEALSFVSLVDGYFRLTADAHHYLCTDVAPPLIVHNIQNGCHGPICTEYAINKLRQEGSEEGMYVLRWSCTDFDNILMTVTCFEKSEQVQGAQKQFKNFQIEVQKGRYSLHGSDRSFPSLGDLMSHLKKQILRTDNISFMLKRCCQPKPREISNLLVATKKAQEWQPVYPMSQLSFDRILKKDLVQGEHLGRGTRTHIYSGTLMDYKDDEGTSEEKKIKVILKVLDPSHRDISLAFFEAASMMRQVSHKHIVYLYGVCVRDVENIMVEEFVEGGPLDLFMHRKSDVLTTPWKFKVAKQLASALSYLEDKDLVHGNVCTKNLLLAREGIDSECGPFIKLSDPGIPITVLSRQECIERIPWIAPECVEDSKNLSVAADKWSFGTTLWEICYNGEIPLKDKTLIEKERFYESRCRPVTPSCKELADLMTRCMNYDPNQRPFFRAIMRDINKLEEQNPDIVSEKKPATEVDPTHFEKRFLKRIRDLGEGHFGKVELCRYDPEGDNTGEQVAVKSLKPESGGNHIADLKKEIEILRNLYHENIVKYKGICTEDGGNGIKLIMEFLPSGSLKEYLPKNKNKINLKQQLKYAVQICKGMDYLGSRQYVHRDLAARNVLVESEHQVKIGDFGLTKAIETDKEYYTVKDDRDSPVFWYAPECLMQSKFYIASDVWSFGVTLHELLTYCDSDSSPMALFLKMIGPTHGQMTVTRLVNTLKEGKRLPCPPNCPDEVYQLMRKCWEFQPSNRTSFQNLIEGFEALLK
ASSAY: AlphaScreen SureFire IL6-TF-1-JAK1 cell-based assay (pSTAT3 detection)
Set-up: endogenous in cells; host or cells: TF-1 cells
STATED_CONDITIONS: TF-1 cells, IL6 30 ng/mL; n=10; read-out: IC50, IL6-stimulated TF-1 JAK1 cell-based assay
REPORTED_METRIC: IC50 (nM)
Could you give me the number in nM? Just the number is fine.

Qu. Indicate its recorded IC50; the compound in question is "Cc1cc(Nc2cc(O[C@H]3CC[C@@H](NC[C@@H](O)C(F)(F)F)CC3)cc3c2ncn3C)nn1C"
Ans. 87
